# System: GH3-TRE-Luc cell line
# condition notes: read-out: AC50 (uM) modified / 1000; Tox21_110001=Tox21_110952; viability, 1 nM T3 present, 24 h
readout label: CC50 (µM)

[
  {
    "molecular string": "CC#C[C@]1(O)CC[C@H]2[C@@H]3CCC4=CC(=O)CCC4=C3[C@@H](c3ccc(N(C)C)cc3)C[C@@]21C",
    "measured": 9.81
  }
]

====

List of CC50 at 24 h values.
# assay overview: in vitro
# condition notes: rat, gh3-tre-luc cells, AC50 (uM) modified / 1000
Counter-ions that a name gives are not always drawn.

[
  {
    "compound": "Cc1ccc(C)cc1 [p-Xylene]",
    "CC50 at 24 h": "> 90 µM"
  },
  {
    "compound": "CC(=O)NC1(c2cccc(F)c2)CCN(CC[C@@]2(c3ccc(Cl)c(Cl)c3)CN(c3ccccc3)C(=O)CO2)CC1 [SAR102779]",
    "CC50 at 24 h": "6.31 µM"
  },
  {
    "compound": "C[Si](C)(C)O[Si](O)(O)O [Trimethylsilyl silicate]",
    "CC50 at 24 h": "> 90 µM"
  },
  {
    "compound": "C=C(C)C(=O)OC1C[C@H]2CC[C@]1(C)C2(C)C (stereo partly drawn) [Isobornyl methacrylate]",
    "CC50 at 24 h": "> 90 µM"
  },
  {
    "compound": "COc1cc(C[C@@H](C)N)c(OC)cc1Br",
    "CC50 at 24 h": "56.1 µM"
  },
  {
    "compound": "Cc1ccc(S(=O)(=O)NC(=O)NC2CCCCC2)cc1 [Glycyclamide]",
    "CC50 at 24 h": "> 50 µM"
  },
  {
    "compound": "CCCCCCCCCCCCCC(=O)OCC(COP(=O)([O-])OCC[N+](C)(C)C)OC(=O)CCCCCCCCCCCCC (racemic)",
    "CC50 at 24 h": "> 50 µM"
  },
  {
    "compound": "COc1cc(CC(C)N)c(OC)cc1Br (stereo not drawn)",
    "CC50 at 24 h": "40.8 µM"
  },
  {
    "compound": "N[C@@H]1CN(c2c(F)cc3c(=O)c(C(=O)O)cn([C@@H]4C[C@@H]4F)c3c2Cl)CC12CC2 [Sitafloxacin]",
    "CC50 at 24 h": "> 50 µM"
  },
  {
    "compound": "CNCc1ccccc1 [N-Methylbenzylamine hydrochloride]",
    "CC50 at 24 h": "> 50 µM"
  },
  {
    "compound": "Nc1nc(N)nc(-c2cc(Cl)ccc2Cl)n1 [Irsogladine maleate]",
    "CC50 at 24 h": "> 50 µM"
  },
  {
    "compound": "CCCCCOC(=O)c1ccc(O)cc1 [Pentylparaben]",
    "CC50 at 24 h": "67.4 µM"
  },
  {
    "compound": "CC(O)CN(CCN(CC(C)O)CC(C)O)CC(C)O (stereo not drawn)",
    "CC50 at 24 h": "> 90 µM"
  },
  {
    "compound": "Nc1ncnc2c1ncn2[C@@H]1O[C@H](COP(=O)(O)O)[C@@H](O)[C@H]1O [Adenosine 5'-phosphate]",
    "CC50 at 24 h": "> 50 µM"
  },
  {
    "compound": "CCCCCCCCCCCCCCCCO [1-Hexadecanol]",
    "CC50 at 24 h": "> 90 µM"
  },
  {
    "compound": "CC1CCCCC1NC(=O)Nc1ccccc1 (stereo not drawn) [Siduron]",
    "CC50 at 24 h": "> 90 µM"
  },
  {
    "compound": "Nc1cc(S(=O)(=O)O)ccc1S(=O)(=O)O [2-Aminobenzene-1,4-disulfonic acid]",
    "CC50 at 24 h": "> 90 µM"
  },
  {
    "compound": "COc1cc2c(cc1OC)[C@@H](Cc1cc(OC)c(OC)c(OC)c1)[N+](C)(CCCOC(=O)CC/C=C/CCC(=O)OCCC[N+]1(C)CCc3cc(OC)c(OC)cc3[C@H]1Cc1cc(OC)c(OC)c(OC)c1)CC2 (stereo partly drawn) [Mivacurium chloride]",
    "CC50 at 24 h": "> 50 µM"
  },
  {
    "compound": "Cc1ccc(N)cc1N [2,4-Diaminotoluene]",
    "CC50 at 24 h": "> 90 µM"
  },
  {
    "compound": "Clc1ccc2cc3ccccc3cc2c1 [2-Chloroanthracene]",
    "CC50 at 24 h": "> 90 µM"
  },
  {
    "compound": "CCCCCCCCOCCCN [3-(Octyloxy)propan-1-amine]",
    "CC50 at 24 h": "11.8 µM"
  },
  {
    "compound": "Cc1cc(C)cc(OCC2CNC(=O)O2)c1 (stereo not drawn) [Metaxalone]",
    "CC50 at 24 h": "> 50 µM"
  },
  {
    "compound": "CCCCCCCC(=O)OC [Methyl octanoate]",
    "CC50 at 24 h": "> 90 µM"
  },
  {
    "compound": "CC1(C)CCC(Cc2ccc(Cl)cc2)C1(O)Cn1cncn1 (stereo not drawn) [Metconazole]",
    "CC50 at 24 h": "82.6 µM"
  },
  {
    "compound": "CC(C)NCC1CCc2cc(CO)c([N+](=O)[O-])cc2N1 (stereo not drawn) [Oxamniquine]",
    "CC50 at 24 h": "> 20 µM"
  },
  {
    "compound": "C=C(C)OC(C)=O [Isopropenyl acetate]",
    "CC50 at 24 h": "> 90 µM"
  },
  {
    "compound": "CC1=NN(c2ccc(S(=O)(=O)O)cc2)C(=O)C1",
    "CC50 at 24 h": "> 90 µM"
  },
  {
    "compound": "CCCCC(CC)COC(=O)CC#N (stereo not drawn) [2-Ethylhexyl cyanoacetate]",
    "CC50 at 24 h": "> 90 µM"
  },
  {
    "compound": "Nc1ccc(Cl)cc1N [4-Chloro-1,2-diaminobenzene]",
    "CC50 at 24 h": "73 µM"
  },
  {
    "compound": "CCCCCCCCCCCCCCCO [1-Pentadecanol]",
    "CC50 at 24 h": "> 90 µM"
  },
  {
    "compound": "CC(CO)OC(C)CO (stereo not drawn) [Dipropylene glycol]",
    "CC50 at 24 h": "> 90 µM"
  },
  {
    "compound": "CCCCCCCCCCCCCC(=O)O [Tetradecanoic acid]",
    "CC50 at 24 h": "> 90 µM"
  },
  {
    "compound": "Nc1cc(-c2ccncc2)c[nH]c1=O [Amrinone]",
    "CC50 at 24 h": "> 90 µM"
  },
  {
    "compound": "NCc1ccccc1 [Benzylamine]",
    "CC50 at 24 h": "> 90 µM"
  },
  {
    "compound": "CC[C@H]1OC(=O)C[C@@H](O)[C@H](C)[C@@H](O[C@@H]2O[C@H](C)[C@@H](O)[C@H](N(C)C)[C@H]2O)[C@@H](CCN2C[C@H](C)C[C@H](C)C2)C[C@@H](C)C(=O)/C=C/C(C)=C/[C@@H]1CO[C@@H]1O[C@H](C)[C@@H](O)[C@@H](OC)[C@H]1OC [Tilmicosin]",
    "CC50 at 24 h": "> 50 µM"
  },
  {
    "compound": "OC(CN1CCCCC1)c1cc(-c2ccccc2)on1 (stereo not drawn) [Perisoxal citrate]",
    "CC50 at 24 h": "> 50 µM"
  },
  {
    "compound": "NC(Cc1ccc(Cl)cc1)C(=O)O (stereo not drawn) [Fenclonine]",
    "CC50 at 24 h": "> 50 µM"
  },
  {
    "compound": "CCCCOC(=O)COC(=O)c1ccccc1C(=O)OCCCC [Butylphthalyl butylglycolate]",
    "CC50 at 24 h": "> 90 µM"
  },
  {
    "compound": "Cc1ccc2nc(-c3ccc(N)cc3)sc2c1S(=O)(=O)O",
    "CC50 at 24 h": "> 50 µM"
  }
]

====

# Tested on: GH3-TRE-Luc cell line
# condition notes: read-out: AC50 (uM) modified / 1000; Tox21_110001=Tox21_111329; viability, 1 nM T3 present, 24 h

[
  {
    "compound": "CO[C@H]1/C=C/O[C@@]2(C)Oc3c(C)c(O)c4c(O)c(c(/C=N/N5CCN(C)CC5)c(O)c4c3C2=O)NC(=O)/C(C)=C\\C=C\\[C@H](C)[C@H](O)[C@@H](C)[C@@H](O)[C@@H](C)[C@H](OC(C)=O)[C@@H]1C [Rifampicin]",
    "CC50 (µM)": 24.2
  }
]

These entries and their values trace back to paper PMC6792352.
